Hey, just so you know, these numbers are from the supplement of paper PMC9170038.

Test system: MS2 coat protein
measurement.notes: apparent KD of MS2 coat protein; higher = weaker reporter binding
condition.info: Eterna round: R101; input ligand: FMN 200 uM
Would you mind telling me the reported apparent KD of MS2 coat protein of each entry?

Answered cases to consult:
# residue.sequence, apparent KD of MS2 coat protein
data = [
    ("AAAUAACUUGAAGGAUAUGACCCUCGAGGUGACUAAAAGUCACCUCGAGGGUCAGAAGGUCGAGGAUCACCCGACCAAGUGAAA [#SharedSequence SLExNG1: 9] (puzzle (switch architecture): Small Loop Exclusion NG 1)", "13.3 nM"),
    ("AAAUGAUAUCAGAAGGGCUCCAGCAAAGCUGGAGCAGGAUAUGAGGAUCACCCAUAUCACCUGACGGUCGAAACGACCGUCAGG [#SharedSequence - IExNG1: 7-1] (puzzle (switch architecture): Inverted Exclusion NG 1)", "62.1 nM"),
]

Query: Provide the documented apparent KD of MS2 coat protein with MS2 coat protein as the system for AAGUGAAAUCAGAAGGGCUCCAGCAAAGCUGGAGCAGGAUAUGAGGAUCACCCAUAUCACCUGACGGUCGAAACGACCGUCAGG [#SharedSequence - IExNG1: 5-1] (puzzle (switch architecture): Inverted Exclusion NG 1)
Reply: 147 nM

* * *

System: MS2 coat protein
measurement.notes: apparent KD of MS2 coat protein; designed switch direction (-1 OFF switch, 1 ON switch): -1; higher = weaker reporter binding
condition.info: Eterna round: R95; input ligand: none
Provide the reported apparent KD of MS2 coat protein of each item.
In your response, put the unit directly after the numeric value.

# residue.sequence, tested.target, readout.value
rows = [
    ("AAGAAACGAGGAUAUACAAUUAAGUGAGAGAGGGAAAUGUGACAUGAGGAUCACCCAUGUAGAAGGCGUAAGAG [JR_Exclu2_Sub084] (puzzle: Exclusion 2)", "MS2 coat protein", "53.5 nM"),
    ("UAUUACAAGCGAGAUCCUAACAUGAGGAUCACCCAUGUGCUCGUCUCAUUUUGGACUAUCACGAAAGUGAUAGUCCU [Level Boss var2-02] (puzzle: Sensor v3, turn-off variant 1)", "MS2 coat protein", "17.2 nM"),
]

For each of the sequences below, state apparent KD of MS2 coat protein.
1. GGAGAGUCAGGAUAUCGAAGGUAGAGAAGAGGAGAGUGGUACGAGAAGGGACAUGAGGAUCACCCAUGUAGGUG [JR_Exclusion4)Sub011] (puzzle: Exclusion 4)
2. AGUAACUAUCACGAAAGUGAUAGUUACACAAGUGAAUAAACAUGAGGAUCACCCAUGUCCUCAUUUGCUCGUUUUAU [Sensor 3 - 17] (puzzle: Sensor v3, turn-off variant 2)
3. GCUUUUCUUUUCCUUUCUUACAUGAGGAUCACCCAUGUUUCUUGUCCUGCUCGCGUUGCUCGUCUGUCUGUCUGUUG [salish99_TOv1_r3_080] (puzzle: Sensor v3, turn-off variant 1)

Reply:
1: 452 nM; 2: 400 nM; 3: 31.2 nM

* * *

System: K4 kissing-loop RNA reporter;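 also: bound reporter read as fluorescence of individual clusters on recovered sequencing chips by microscopy, with normalized cluster intensities fitted with a binding model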
measurement.notes: apparent KD of K4 kissing-loop reporter; higher = weaker reporter binding
condition.info: Eterna round: R107; input ligand: tryptophan 2.4 mM
Exercise: state measured apparent KD of K4 kissing-loop reporter for each of the sequences provided.
Answers are plain numbers, in nM.

Worked set:
# residue.sequence, unit.abbrev, readout.value
measured = [
    ("AAGUCUCGUUAAUUCGAGGUUACGAUCGAUACCAGUAGCGAGAGGUACCCUUGGCAGCGAAGUGAGUGAUGUUCAUGAAAGAAGA [KL-XTheoA12]", "nM", 78),
    ("UGUACCGAGUCAGGAUAUGGCGUCGAAAGACGAAACCAGUGAUGUUGGAAUAUCGACGAAAGUCGUCCAGAAGGGACUUGGUACU [FmnBS 17 #SwitchBubble #StaticStem #DoubleMagnetSystem]", "nM", 273),
    ("AGUGCACUGGCAGGAUAUGUACAGUGAUGUUGUGUAUGUCAGCAAGUCAAAGACUUGCUCUUCUGUGCAGAAGGGCCUGUGUACA [#05 K4 FMN B Exclusion]", "nM", 534),
    ("UUGAUAUGAUAGUAUCUUGUUUGAUAAAGGCAGGAUAUCGUAUAUUUGAGAAGGGCCAUUAUAUGCAGUGAUGUUGCAAAUAAGU [Exclusion FMN A Gf 25]", "nM", 40),
    ("GCGAUCUGCAUCGAUACCAGCCCAGUGAUGUUGGGCUGCUCUCCAUGGGUGCCAGACACGGGCCCUUGGCAGCGAGGUAGAGCCC [Maonzaa]", "nM", 115),
]

List reported apparent KD of K4 kissing-loop reporter for each of these sequences:
1. GAUAUAGUGAUGUUAUAUAAGAAGGAGUUACGAGGACCGGUACGGCCGCCACUCGAAACGAGUGAUGAUUUGGGAGAUUGGGUUG [SSTryptA.O]
2. GCCGUAGAUGGAAGGAGCGUGUCAAAGUGAUGUUUUGAUUAACUCCCUAAGGGAUAGAUGACACAGGUAGGUCGCCAUCUACGGC
3. UGUGUUGUUGUGAUGUUUGGUGUUGCAGGGCAGGAUAUCGUAGAGGCGAGAAGGGCUUUUGUGCGGUAUGAGUGAUGUUUGUAGG [rrcgsmullin]
4. UGAUAGGACAGAAGGAGCGGAAGCUAGUCAAAGACUAGCACGUUAAUAACAGGAGUGAUGUUCCAGGUAGGUCGCUGUCCUAUCU [ArgBX 24 #SwitchBubble #StaticStem]
5. UCGGACCCUGGAGGAUAUGAGUCUAGUGAUGUUAGGCGGUCCAUGCGCGUGGCGCGUUAUGCCCUUUUAGAAGGCCAGGGUCCGA [#2 Exclusion - FMN B Attempt #15 (HarryS)]
6. UGAUUGCCAGUGAUGUUGGCAUAUACUGAAGGAGCGCGUGAAAACGCAGGUAGGUCGCAGUUCCUUGCCAAUUGAUCGAAAGAUC [KL-XArg-A1]
7. AAUGUACAAGUGAUGUUUGUACUUUCCGAAGGAGCGUCUAAUAAGACAGGUAGGUCGCGGAUUAUCAUAAUUAUCAGGUUUUCAA [JR_SSArginiA_Sub015]

Reply:
1: 265; 2: 63.3; 3: 250; 4: 113; 5: 84.6; 6: 127; 7: 90.9

* * *

For each entry below, report its apparent KD of MS2 coat protein value.
Test system: MS2 coat protein
measurement.notes: apparent KD of MS2 coat protein; designed switch direction (-1 OFF switch, 1 ON switch): 1; higher = weaker reporter binding
condition.info: input ligand: none

Give apparent KD of MS2 coat protein for each of the items listed below.
1. AAAAUGGUAUGUUACAUGAGGAUCACCCAUGUACCGUAAUCUGAGGAUAUGGUGAUGUAGAAGAAUCAGAAGGCAGACAUUUAA [AK SSNG3-V2-24.2] (Eterna round: R96, puzzle: Same State NG 3)
2. AGAGGAGGCGCAGGAUAUACGACGGAGGACGUGGUAGAAGGGUGCAUGCGAAAACAUGAGGAUCACCCAUGUACCGCGCGACGA [ssng1 c] (Eterna round: R96, puzzle: Same State NG 1)

Reply:
36.1 nM
126 nM

Give me apparent KD of MS2 coat protein for each of these sequences, listed below.
1. UUACUCAUGUAAGGAUAUGCAGCCGUUUCGGCUGCAGAAGGUACUAUAAUACAUGAGGAUCACCCAUGUCUCUAUUAUUUAGUU [JL SSNG1 1.43] (Eterna round: R96, puzzle: Same State NG 1)
2. UGGCUCAGAGCAGGAUAUAUGCGAUCACAUGAGGAUCACCCAUGUCUCGAGCUUCGGCUCGAGGCAUAGAAGGGCUCUGAGCCU [SSNG2/4-B3] (Eterna round: R96, puzzle: Same State NG 2)
3. AAUCGUUUGAUAGGAUAUCGUUAUACAUGAGGAUCACCCAUGUUUACCACGCUGGUUUUUCGUACCGAGAAGGAUUCUGAUGAU [JL JR sub007 mod 6] (Eterna round: R96, puzzle: Same State NG 2)
4. UGGUACAUGGGAGGAUAUCAUGUAGAAACAUGAGGAUCACCCAUGUGGAUGGAGACAUCGGAGAUUGAGAAGGCCCAUGUACCU [JL SSNG1 3.56] (Eterna round: R96, puzzle: Same State NG 2)

Reply:
1: 52.7 nM; 2: 45.5 nM; 3: 27.5 nM; 4: 25.2 nM

Provide reported apparent KD of MS2 coat protein for each item, in the same order as listed.
1. AGAUCUCCUCUAGGAUAUCCCUAACAUGAGGAUCACCCAUGUCCGAAUUGCAGACAUAGGCCGAGGGAGAAGGAGAAACCGUCG [Eternabot solution 41] (Eterna round: R96, puzzle: Same State NG 2)
2. ACAUGAGAGUUAGGAUAUCUUGUACCUACAUGUGACAUGAGGAUCACCCAUGUGGUAAGUAUGAGGGAGAAGGGACAGAUAUGU [Equivalence 44 - Jieux - Same State NG 2] (Eterna round: R96, puzzle: Same State NG 2)
3. AUUAGUGGUGGAGGAUAUGGGAAAGGAAGUGUACUAGAAGGCCACCGCCCUCUAGCACAUGAGGAUCACCCAUGUAUAGAGCCC [PowerStrip SSNG 1.14] (Eterna round: R96, puzzle: Same State NG 1)

Reply:
["856 nM", "84.7 nM", "88.2 nM"]
